Source of measurements: paper PMC10766964

# Test system: MDA-MB-231 (human breast cancer) cell line
# procedure-summary: MTT cell viability assay in MDA-MB-231 cells
# Type: cell-based
# study-conditions: Table 2, MDA-MB-231, MTT, 72 h, 50 µM, read-out: Cell viability (%) ± SD

compound: CC(=O)OC[C@H]1O[C@H](n2cc(COc3cc(-c4ccc(C)cc4)nc4ccnn34)nn2)[C@@H](OC(C)=O)[C@@H](OC(C)=O)[C@@H]1OC(C)=O [Compound 11a]
viability at 50 µM / %: 96.7
--
compound: CC(=O)OC[C@H]1O[C@H](n2cc(COc3cc(-c4ccc(F)cc4)nc4ccnn34)nn2)[C@@H](OC(C)=O)[C@@H](OC(C)=O)[C@@H]1OC(C)=O [Compound 11e]
viability at 50 µM / %: 88.6
--
compound: CC(=O)OC[C@H]1O[C@@H](n2cc(COc3cc(-c4ccc(C(F)(F)F)cc4)nc4ccnn34)nn2)[C@H](OC(C)=O)[C@@H](OC(C)=O)[C@@H]1OC(C)=O [Compound 9f]
viability at 50 µM / %: 73.8
--
compound: CC(=O)OC[C@H]1O[C@@H](n2cc(COc3cc(-c4ccc(C(F)(F)F)cc4)nc4ccnn34)nn2)[C@H](OC(C)=O)[C@@H](OC(C)=O)[C@H]1OC(C)=O [Compound 10f]
viability at 50 µM / %: 41.2
--
compound: CC(=O)OC[C@H]1O[C@@H](n2cc(COc3cc(-c4ccc(Br)cc4)nc4ccnn34)nn2)[C@H](OC(C)=O)[C@@H](OC(C)=O)[C@H]1OC(C)=O [Compound 10c]
viability at 50 µM / %: 74
--
compound: CC(=O)OC[C@H]1O[C@@H](n2cc(COc3cc(-c4ccc(F)cc4)nc4ccnn34)nn2)[C@H](OC(C)=O)[C@@H](OC(C)=O)[C@@H]1OC(C)=O [Compound 9e]
viability at 50 µM / %: 81.2
--
compound: COc1ccc(-c2cc(OCc3cn([C@@H]4O[C@H](COC(C)=O)[C@H](OC(C)=O)[C@H](OC(C)=O)[C@H]4OC(C)=O)nn3)n3nccc3n2)cc1 [Compound 10b]
viability at 50 µM / %: 70.5
--
compound: COc1ccc(-c2cc(OCc3cn([C@@H]4O[C@H](COC(C)=O)[C@@H](OC(C)=O)[C@H](OC(C)=O)[C@H]4OC(C)=O)nn3)n3nccc3n2)cc1 [Compound 9b]
viability at 50 µM / %: 83.4
--
compound: CC(=O)OC[C@H]1O[C@@H](n2cc(COc3cc(-c4ccc5c(c4)OCO5)nc4ccnn34)nn2)[C@H](OC(C)=O)[C@@H](OC(C)=O)[C@@H]1OC(C)=O [Compound 9i]
viability at 50 µM / %: 80.4
--
compound: CC(=O)OC[C@H]1O[C@@H](n2cc(COc3cc(-c4ccc5ccccc5c4)nc4ccnn34)nn2)[C@H](OC(C)=O)[C@@H](OC(C)=O)[C@@H]1OC(C)=O [Compound 9h]
viability at 50 µM / %: 42.8
--
compound: CC(=O)OC[C@H]1O[C@@H](n2cc(COc3cc(-c4ccc5ccccc5c4)nc4ccnn34)nn2)[C@H](OC(C)=O)[C@@H](OC(C)=O)[C@H]1OC(C)=O [Compound 10h]
viability at 50 µM / %: 57.7

###

Catalogue of molecules with associated viability at 72 h, 25 µM
# procedure-summary: MTT cell viability assay in normal MCF-10A cells
# Type: cell-based
# study-conditions: human, MCF-10A normal mammary epithelial cells; MCF-10A normal cells, 25 µM; read-out: Cell viability (%) ± SD

molecule: CC(=O)OC[C@H]1O[C@@H](n2cc(COc3cc(-c4ccc(Cl)cc4)nc4ccnn34)nn2)[C@H](OC(C)=O)[C@@H](OC(C)=O)[C@H]1OC(C)=O [Compound 10d]
unit-descriptor: %
viability at 72 h, 25 µM: 89.6
--
molecule: CC(=O)OC[C@H]1O[C@@H](n2cc(COc3cc(-c4ccc(C)cc4)nc4ccnn34)nn2)[C@H](OC(C)=O)[C@@H](OC(C)=O)[C@@H]1OC(C)=O
unit-descriptor: %
viability at 72 h, 25 µM: 88.6
--
molecule: CC(=O)OC[C@H]1O[C@@H](n2cc(COc3cc(-c4ccc5ccccc5c4)nc4ccnn34)nn2)[C@H](OC(C)=O)[C@@H](OC(C)=O)[C@@H]1OC(C)=O
unit-descriptor: %
viability at 72 h, 25 µM: 86.8
--
molecule: CC(=O)OC[C@H]1O[C@@H](n2cc(COc3cc(-c4ccc(C(F)(F)F)cc4)nc4ccnn34)nn2)[C@H](OC(C)=O)[C@@H](OC(C)=O)[C@H]1OC(C)=O [Compound 10f]
unit-descriptor: %
viability at 72 h, 25 µM: 86.6
--
molecule: CC(=O)OC[C@H]1O[C@@H](n2cc(COc3cc(-c4ccc(Cl)cc4)nc4ccnn34)nn2)[C@H](OC(C)=O)[C@@H](OC(C)=O)[C@@H]1OC(C)=O
unit-descriptor: %
viability at 72 h, 25 µM: 87.8
--
molecule: CC(=O)OC[C@H]1O[C@H](n2cc(COc3cc(-c4ccc(C(C)C)cc4)nc4ccnn34)nn2)[C@@H](OC(C)=O)[C@@H](OC(C)=O)[C@@H]1OC(C)=O [Compound 11g]
unit-descriptor: %
viability at 72 h, 25 µM: 89.8

###

# Test system: MDA-MB-231 (human breast cancer) cell line
# procedure-summary: MTT cell viability assay in MDA-MB-231 cells
# Format: cell-based
# study-conditions: Table 2, MDA-MB-231, MTT, 72 h, 50 µM, read-out: Cell viability (%) ± SD
# Protocol: Thus, we screened the synthesized library of pyrazolo[1,5-a]pyrimidin-7-ols 4a–4i. […] After 72 h of cell incubation with or without each compound, cell viability was assessed using MTT (3-(4,5-dimethylthiazol-2-yl)-2,5-diphenyltetrazolium bromide), which is a colorimetric method for determining the number of viable cells in various assays including proliferation, cytotoxicity, or chemosensitivity. […] The absorbance values are directly proportional to the number of viable cells in culture. […]
Here, each record is paired with measured viability at 50 µM data.

molecule: CC(=O)OC[C@H]1O[C@@H](n2cc(COc3cc(-c4ccc(C)cc4)nc4ccnn34)nn2)[C@H](OC(C)=O)[C@@H](OC(C)=O)[C@H]1OC(C)=O [Compound 10a]
assayed-target: MDA-MB-231 (human breast cancer) cell line
viability at 50 µM, %: 68.8

molecule: CC(=O)OC[C@H]1O[C@@H](n2cc(COc3cc(-c4ccc(C(C)C)cc4)nc4ccnn34)nn2)[C@H](OC(C)=O)[C@@H](OC(C)=O)[C@H]1OC(C)=O [Compound 10g]
assayed-target: MDA-MB-231 (human breast cancer) cell line
viability at 50 µM, %: 78.7

molecule: CC(=O)OC[C@H]1O[C@@H](n2cc(COc3cc(-c4ccc(F)cc4)nc4ccnn34)nn2)[C@H](OC(C)=O)[C@@H](OC(C)=O)[C@H]1OC(C)=O [Compound 10e]
assayed-target: MDA-MB-231 (human breast cancer) cell line
viability at 50 µM, %: 71.3

molecule: COc1ccc(-c2cc(OCc3cn([C@H]4O[C@H](COC(C)=O)[C@@H](OC(C)=O)[C@H](OC(C)=O)[C@@H]4OC(C)=O)nn3)n3nccc3n2)cc1 [Compound 11b]
assayed-target: MDA-MB-231 (human breast cancer) cell line
viability at 50 µM, %: 70.4

molecule: CC(=O)OC[C@H]1O[C@H](n2cc(COc3cc(-c4ccc(Cl)cc4)nc4ccnn34)nn2)[C@@H](OC(C)=O)[C@@H](OC(C)=O)[C@@H]1OC(C)=O [Compound 11d]
assayed-target: MDA-MB-231 (human breast cancer) cell line
viability at 50 µM, %: 89

molecule: CC(=O)OC[C@H]1O[C@@H](n2cc(COc3cc(-c4ccc(Br)cc4)nc4ccnn34)nn2)[C@H](OC(C)=O)[C@@H](OC(C)=O)[C@@H]1OC(C)=O
assayed-target: MDA-MB-231 (human breast cancer) cell line
viability at 50 µM, %: 99.5

molecule: CC(=O)OC[C@H]1O[C@@H](n2cc(COc3cc(-c4ccc(Cl)cc4)nc4ccnn34)nn2)[C@H](OC(C)=O)[C@@H](OC(C)=O)[C@@H]1OC(C)=O
assayed-target: MDA-MB-231 (human breast cancer) cell line
viability at 50 µM, %: 58.6

molecule: CC(=O)OC[C@H]1O[C@H](n2cc(COc3cc(-c4ccc(Br)cc4)nc4ccnn34)nn2)[C@@H](OC(C)=O)[C@@H](OC(C)=O)[C@@H]1OC(C)=O [Compound 11c]
assayed-target: MDA-MB-231 (human breast cancer) cell line
viability at 50 µM, %: 72.5

molecule: CC(=O)OC[C@H]1O[C@H](n2cc(COc3cc(-c4ccc(C(C)C)cc4)nc4ccnn34)nn2)[C@@H](OC(C)=O)[C@@H](OC(C)=O)[C@@H]1OC(C)=O [Compound 11g]
assayed-target: MDA-MB-231 (human breast cancer) cell line
viability at 50 µM, %: 45.3

molecule: CC(=O)OC[C@H]1O[C@H](n2cc(COc3cc(-c4ccc(C(F)(F)F)cc4)nc4ccnn34)nn2)[C@@H](OC(C)=O)[C@@H](OC(C)=O)[C@@H]1OC(C)=O [Compound 11f]
assayed-target: MDA-MB-231 (human breast cancer) cell line
viability at 50 µM, %: 86.5

molecule: CC(=O)OC[C@H]1O[C@@H](n2cc(COc3cc(-c4ccc(Cl)cc4)nc4ccnn34)nn2)[C@H](OC(C)=O)[C@@H](OC(C)=O)[C@H]1OC(C)=O [Compound 10d]
assayed-target: MDA-MB-231 (human breast cancer) cell line
viability at 50 µM, %: 41
